method.summary: Selectivity index, ratio of CC50 for mock-infected human MT4 cells to EC50 for HIV-1 3B infected in human MT4 cells
Assay type: toxicity, cell-based
protocol.conditions: mock-infected and infected with HIV-1 3B, read-out: Ratio CC50/EC50
Output: class label from selectivity ratio. Mapping: lower segment: < 200; middle segment: ≥ 200 and < 600; upper segment: ≥ 600

smiles.input	assigned.class
Cc1cccc(C)c1Nc1cc(Nc2ccc(C#N)cc2)nc2ncnn12	lower segment
N#Cc1ccc(Nc2cc(Oc3c(Br)cc(Br)cc3Br)n3ncnc3n2)cc1	lower segment
Cc1cc(C#N)cc(C)c1Oc1cc(Nc2ccc(C#N)cc2)nc2ncnn12	lower segment
Cc1cc(Cl)cc(C)c1Oc1cc(Nc2ccc(C#N)cc2)nc2ncnn12	middle segment
Cc1ccc(Nc2cc(Oc3c(C)cc(C)cc3C)n3ncnc3n2)cc1	upper segment
Cc1cc(Br)c(Oc2cc(Nc3ccc(C#N)cc3)nc3ncnn23)c(Br)c1	upper segment
Cc1cc(Br)cc(C)c1Oc1cc(Nc2ccc(C#N)cc2)n2ncnc2n1	middle segment
Cc1cc(C)c(Oc2cc(Nc3ccc(C#N)cc3)nc3ncnn23)c(C)c1	upper segment
Cc1cc(C)c(Oc2cc(Nc3ccc([N+](=O)[O-])cc3)nc3ncnn23)c(C)c1	lower segment
Cc1cc(C)c(Oc2cc(Nc3ccc(C#N)cc3)n3ncnc3n2)c(C)c1	upper segment

====

method.summary: Cytotoxicity against mock-infected human MT4 cells after 5 days by MTT assay
Assay type: cell-based
Measured CC50 at 120 h by item
property.name: CC50 at 120 h

smiles.input	result
Cc1cc(Br)c(Oc2cc(Nc3ccc(C#N)cc3)nc3ncnn23)c(Br)c1	192 µM
Cc1ccnc2c1NC(=O)c1cccnc1N2C1CC1	> 15 µM
Cc1cc(C)c(Oc2cc(Nc3ccc([N+](=O)[O-])cc3)nc3ncnn23)c(C)c1	33 µM
CC(C)Nc1cccnc1N1CCN(C(=O)c2cc3cc(NS(C)(=O)=O)ccc3[nH]2)CC1	> 36 µM
Cc1cccc(C)c1Oc1cc(Nc2ccc(C#N)cc2)nc2ncnn12	233 µM
Cc1cc(C)c(Oc2cc(Nc3ccc(Cl)cc3)nc3ncnn23)c(C)c1	46 µM
Cc1cc(Cl)cc(C)c1Oc1cc(Nc2ccc(C#N)cc2)nc2ncnn12	104 µM
N#Cc1ccc(Nc2cc(Oc3c(Cl)cc(Cl)cc3Cl)nc3ncnn23)cc1	32 µM
Cc1cc(C)c(Nc2cc(Nc3ccc(C#N)cc3)nc3ncnn23)c(C)c1	190 µM
Cc1cc(C#N)cc(C)c1Oc1cc(Nc2ccc(C#N)cc2)nc2ncnn12	224 µM

====

method.summary: Selectivity index, ratio of CC50 for mock-infected human MT4 cells to EC50 for HIV-1 3B infected in human MT4 cells
Format: toxicity, cell-based
protocol.conditions: mock-infected and infected with HIV-1 3B, read-out: Ratio CC50/EC50
Measured selectivity ratio by item
property.name: selectivity ratio

smiles.input	operator	number
Cc1cccc(C)c1Oc1cc(Nc2ccc(C#N)cc2)n2ncnc2n1	=	170
N#Cc1ccc(Nc2cc(Oc3c(Cl)cc(Cl)cc3Cl)nc3ncnn23)cc1	=	109
Cc1cc(C)c(Oc2cc(Nc3ccc(Cl)cc3)nc3ncnn23)c(C)c1	=	864
N#Cc1ccc(Nc2cc(Oc3c(Cl)cc(Cl)cc3Cl)n3ncnc3n2)cc1	=	47
COc1ccc(Nc2cc(Oc3c(C)cc(C)cc3C)n3ncnc3n2)cc1	=	165
Cc1cc(Br)cc(C)c1Oc1cc(Nc2ccc(C#N)cc2)nc2ncnn12	=	579
N#Cc1ccc(Nc2cc(Oc3c(Cl)cccc3Cl)n3ncnc3n2)cc1	=	44
Cc1cccc(C)c1Oc1cc(Nc2ccc(C#N)cc2)nc2ncnn12	=	182
N#Cc1ccc(Nc2cc(Oc3c(F)cc(F)cc3F)nc3ncnn23)cc1	<	1
Cc1cc(C)c(Nc2cc(Nc3ccc(C#N)cc3)nc3ncnn23)c(C)c1	=	8990

====

method.summary: Cytotoxicity against mock-infected human MT4 cells after 5 days by MTT assay
Format: cell-based
Define the label as t when CC50 at 120 h is strictly less than 200 µM and as f in all remaining cases.

smiles.input	assigned.class
Cc1ccc(Nc2cc(Oc3c(C)cc(C)cc3C)n3ncnc3n2)cc1	t
Cc1cc(C)c(Oc2cc(Nc3ccc(C#N)cc3)nc3ncnn23)c(C)c1	t
Cc1cc(Br)cc(C)c1Oc1cc(Nc2ccc(C#N)cc2)nc2ncnn12	t
Cc1cccc(C)c1Oc1cc(Nc2ccc(C#N)cc2)n2ncnc2n1	f
Cc1cccc(C)c1Nc1cc(Nc2ccc(C#N)cc2)nc2ncnn12	f
N#Cc1ccc(Nc2cc(Oc3c(Cl)cc(Cl)cc3Cl)n3ncnc3n2)cc1	t
N#Cc1ccc(Nc2cc(Oc3c(F)cc(F)cc3F)nc3ncnn23)cc1	t
Cc1cc(Br)cc(C)c1Oc1cc(Nc2ccc(C#N)cc2)n2ncnc2n1	t
N#Cc1ccc(Nc2cc(Oc3c(Cl)cccc3Cl)n3ncnc3n2)cc1	t
Cc1cc(C)c(Oc2cc(Nc3ccc(C#N)cc3)n3ncnc3n2)c(C)c1	t
N#Cc1ccc(Nc2cc(Oc3c(Br)cc(Br)cc3Br)n3ncnc3n2)cc1	t
COc1ccc(Nc2cc(Oc3c(C)cc(C)cc3C)n3ncnc3n2)cc1	t

====

Test system: Human immunodeficiency virus 1
method.summary: Antiviral activity against HIV-1 harboring wild-type reverse transcriptase
Format: functional, organism-based

smiles.input	assayed.system	EC50, nM
Cc1cc(C#N)cc(C)c1Oc1nc(Nc2ccc(C#N)cc2)nc2cc[nH]c12	Human immunodeficiency virus 1	0.25
Cc1cc(C#N)cc(C)c1Oc1nc(Nc2ccc(C#N)cc2)nc2[nH]ccc12	Human immunodeficiency virus 1	0.16

====

Measured selectivity ratio by item
method.summary: Selectivity index, ratio of CC50 for mock-infected human MT4 cells to EC50 for HIV-1 RES056 harboring RT K103N/Y181C double mutant infected in human MT4 cells
Format: toxicity, cell-based
protocol.conditions: read-out: Ratio CC50/EC50

compound	selectivity ratio
Cc1cc(Br)cc(C)c1Oc1cc(Nc2ccc(C#N)cc2)nc2ncnn12	< 1
COc1ccc(Nc2cc(Oc3c(C)cc(C)cc3C)n3ncnc3n2)cc1	< 1
Cc1cc(C)c(Oc2cc(Nc3ccc(Cl)cc3)nc3ncnn23)c(C)c1	< 1
Cc1cccc(C)c1Oc1cc(Nc2ccc(C#N)cc2)n2ncnc2n1	< 1
Cc1cc(C)c(Oc2cc(Nc3ccc([N+](=O)[O-])cc3)nc3ncnn23)c(C)c1	< 1
N#Cc1ccc(Nc2cc(Oc3c(F)cc(F)cc3F)nc3ncnn23)cc1	< 1
N#Cc1ccc(Nc2cc(Oc3c(Cl)cccc3Cl)n3ncnc3n2)cc1	< 1
N#Cc1ccc(Nc2cc(Oc3c(Cl)cc(Cl)cc3Cl)n3ncnc3n2)cc1	< 1
N#Cc1ccc(Nc2cc(Oc3c(Br)cc(Br)cc3Br)n3ncnc3n2)cc1	< 1
Cc1ccnc2c1NC(=O)c1cccnc1N2C1CC1 [NEVIRAPINE]	> 5
Cc1cc(C)c(Oc2cc(Nc3ccc(C#N)cc3)nc3ncnn23)c(C)c1	< 1
N#Cc1ccc(Nc2cc(Oc3c(Cl)cc(Cl)cc3Cl)nc3ncnn23)cc1	< 1
Cc1cc(C)c(Nc2cc(Nc3ccc(C#N)cc3)nc3ncnn23)c(C)c1	25
Cc1cccc(C)c1Nc1cc(Nc2ccc(C#N)cc2)nc2ncnn12	< 1
Cc1cc(Cl)cc(C)c1Oc1cc(Nc2ccc(C#N)cc2)nc2ncnn12	< 1
CC(C)Nc1cccnc1N1CCN(C(=O)c2cc3cc(NS(C)(=O)=O)ccc3[nH]2)CC1 [DELAVIRDINE]	1
Cc1ccc(Nc2cc(Oc3c(C)cc(C)cc3C)n3ncnc3n2)cc1	< 1
Cc1cccc(C)c1Oc1cc(Nc2ccc(C#N)cc2)nc2ncnn12	< 1
Cc1cc(C#N)cc(C)c1Oc1cc(Nc2ccc(C#N)cc2)nc2ncnn12	< 1
Cc1cc(Br)cc(C)c1Oc1cc(Nc2ccc(C#N)cc2)n2ncnc2n1	< 1
Cc1cc(C)c(Oc2cc(Nc3ccc(C#N)cc3)n3ncnc3n2)c(C)c1	≤ 2
Cc1cc(Br)c(Oc2cc(Nc3ccc(C#N)cc3)nc3ncnn23)c(Br)c1	< 1

====

System: Human immunodeficiency virus 1
method.summary: Antiviral activity against HIV-1 harboring RT K103N/Y181C double mutant
Type: functional, organism-based

smiles.input	EC50
Cc1cc(C#N)cc(C)c1Oc1nc(Nc2ccc(C#N)cc2)nc2cc[nH]c12	3.8 nM
Cc1cc(C#N)cc(C)c1Oc1nc(Nc2ccc(C#N)cc2)nc2[nH]ccc12	7.8 nM
